# assayedTarget: recombinant tick kinin receptor (BMLK3) (Rhipicephalus microplus, UniProt Q9NHA4)
# Sequence (Q9NHA4 entry or part of it): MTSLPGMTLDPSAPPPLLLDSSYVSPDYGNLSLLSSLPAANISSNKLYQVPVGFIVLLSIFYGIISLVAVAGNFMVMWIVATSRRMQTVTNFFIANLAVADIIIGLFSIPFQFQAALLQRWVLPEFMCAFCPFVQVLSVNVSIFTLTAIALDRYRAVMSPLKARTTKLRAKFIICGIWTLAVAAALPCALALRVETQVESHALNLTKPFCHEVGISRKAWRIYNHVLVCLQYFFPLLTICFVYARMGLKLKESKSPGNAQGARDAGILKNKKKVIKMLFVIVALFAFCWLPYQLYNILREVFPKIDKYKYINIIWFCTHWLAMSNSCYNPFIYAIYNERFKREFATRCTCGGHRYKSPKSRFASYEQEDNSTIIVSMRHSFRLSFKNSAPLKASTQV
# test: Dose-response dual-addition calcium fluorescence assay on BMLK3 cells
# Assay type: cell-based
# statedConditions: first addition, 20 concentrations 28 nM-25 μM; read-out: BMLK3 EC50
pEC50: −log10 of the molar value.
assayEndpoint: pEC50

Example cases with answers are listed next.
lineNotation	result
C[C@@](O)(C#Cc1ccccc1)c1ccc(N2CCCCC2)c(F)c1	< 4.60
Cc1oc(S(=O)(=O)N2CCOCC2)cc1C(=O)Nc1ccc(F)cc1	> 7.55
COc1ccc(-c2nc(CN3CCN(C(=O)c4ccc5c(c4)NC(=O)[C@H](C)S5)CC3)cs2)cc1	< 4.60

Shifting focus to the molecule that follows.
# get_value(readout= pEC50, system= recombinant tick kinin receptor (BMLK3) (Rhipicephalus microplus, UniProt Q9NHA4)) for `COc1ccccc1-n1nnnc1S[C@@H](C)C(=O)c1ccc2c(c1)CCN2C(C)=O`
< 4.60
